# Tested on: G-401 tumor spheroids, viability % test/control
# Measurement Notes: Anticancer human tumor G-401 cell line growth inhibition; active = viability on the fitted dose curve at most 10% of control; inactive = the rest;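 also: spheroids exposed to compound for 7 days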
# Settings: second compound 30 pM; first compound 10 µM; spheroids with HUVEC and MSC
Write down one outcome, taken from active, inactive

COc1ccc([C@@H](O)c2cc(-c3ncnc4cc(N5CCOCC5)ccc34)c(F)cc2Cl)nn1 + COc1cc2c(cc1O)CCNC21CSC2c3c(OC(C)=O)c(C)c4c(c3C(COC1=O)N1C(O)C3Cc5cc(C)c(OC)c(O)c5C(C21)N3C)OCO4	active
CC(C)n1c(=O)n(C)c2cnc3cc(F)c(-c4ccc(OCCCN5CCCCC5)nc4)cc3c21 + COc1cc2c(cc1O)CCNC21CSC2c3c(OC(C)=O)c(C)c4c(c3C(COC1=O)N1C(O)C3Cc5cc(C)c(OC)c(O)c5C(C21)N3C)OCO4	inactive
[2H]c1nc(C)nc([2H])c1-c1cc(NC[C@@H](C)c2cccc3c(C(=O)NC)ccnc23)ncn1 + COc1cc2c(cc1O)CCNC21CSC2c3c(OC(C)=O)c(C)c4c(c3C(COC1=O)N1C(O)C3Cc5cc(C)c(OC)c(O)c5C(C21)N3C)OCO4	inactive
CC1COCCN1c1cc(-c2ccnn2C)c2ccnc(-c3ccn[nH]3)c2n1 (stereo unspecified) + COc1cc2c(cc1O)CCNC21CSC2c3c(OC(C)=O)c(C)c4c(c3C(COC1=O)N1C(O)C3Cc5cc(C)c(OC)c(O)c5C(C21)N3C)OCO4	inactive

Look up the recorded call for Cc1cc(C)c(CNC(=O)c2cc(-c3ccc(CN4CCOCC4)cc3)cc3c2cnn3C2CCCC2)c(=O)[nH]1 + COc1cc2c(cc1O)CCNC21CSC2c3c(OC(C)=O)c(C)c4c(c3C(COC1=O)N1C(O)C3Cc5cc(C)c(OC)c(O)c5C(C21)N3C)OCO4 in this test. inactive

// outcome(item) with item = COc1cc(C)[nH]c(=O)c1CN1CCc2c(Cl)cc(C(OC)C3COC3)c(Cl)c2C1=O (stereo unspecified) + COc1cc2c(cc1O)CCNC21CSC2c3c(OC(C)=O)c(C)c4c(c3C(COC1=O)N1C(O)C3Cc5cc(C)c(OC)c(O)c5C(C21)N3C)OCO4 inactive
